Assayed Target: Mitogen-activated protein kinase 14 (Homo sapiens)
Sequence (Q16539 whole entry): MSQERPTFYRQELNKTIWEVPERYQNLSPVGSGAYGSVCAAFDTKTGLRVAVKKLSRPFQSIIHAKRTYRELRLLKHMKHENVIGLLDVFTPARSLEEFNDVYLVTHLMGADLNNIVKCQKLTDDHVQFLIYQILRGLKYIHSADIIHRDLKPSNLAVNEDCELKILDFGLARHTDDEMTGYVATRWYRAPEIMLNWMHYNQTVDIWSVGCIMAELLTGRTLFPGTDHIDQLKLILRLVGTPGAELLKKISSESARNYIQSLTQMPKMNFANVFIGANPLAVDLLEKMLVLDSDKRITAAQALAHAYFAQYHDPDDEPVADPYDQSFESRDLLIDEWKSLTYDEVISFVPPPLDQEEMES
Assay Name: Inhibition of p38 alpha (unknown origin)
Value Type: IC50

{"Mol": "COc1cc(Nc2ccc3c(n2)CN(C)C32CCN(C3COC3)CC2)c(C(N)=O)nc1-c1cccc2c1ncn2C", "Assayed Target": "Mitogen-activated protein kinase 14 (Homo sapiens)", "Value Type": "IC50", "Reported": "> 10 µM"}

* * *

Assayed Target: Serine/threonine-protein kinase TAO2 (Homo sapiens)
Sequence (Q9UL54 whole entry): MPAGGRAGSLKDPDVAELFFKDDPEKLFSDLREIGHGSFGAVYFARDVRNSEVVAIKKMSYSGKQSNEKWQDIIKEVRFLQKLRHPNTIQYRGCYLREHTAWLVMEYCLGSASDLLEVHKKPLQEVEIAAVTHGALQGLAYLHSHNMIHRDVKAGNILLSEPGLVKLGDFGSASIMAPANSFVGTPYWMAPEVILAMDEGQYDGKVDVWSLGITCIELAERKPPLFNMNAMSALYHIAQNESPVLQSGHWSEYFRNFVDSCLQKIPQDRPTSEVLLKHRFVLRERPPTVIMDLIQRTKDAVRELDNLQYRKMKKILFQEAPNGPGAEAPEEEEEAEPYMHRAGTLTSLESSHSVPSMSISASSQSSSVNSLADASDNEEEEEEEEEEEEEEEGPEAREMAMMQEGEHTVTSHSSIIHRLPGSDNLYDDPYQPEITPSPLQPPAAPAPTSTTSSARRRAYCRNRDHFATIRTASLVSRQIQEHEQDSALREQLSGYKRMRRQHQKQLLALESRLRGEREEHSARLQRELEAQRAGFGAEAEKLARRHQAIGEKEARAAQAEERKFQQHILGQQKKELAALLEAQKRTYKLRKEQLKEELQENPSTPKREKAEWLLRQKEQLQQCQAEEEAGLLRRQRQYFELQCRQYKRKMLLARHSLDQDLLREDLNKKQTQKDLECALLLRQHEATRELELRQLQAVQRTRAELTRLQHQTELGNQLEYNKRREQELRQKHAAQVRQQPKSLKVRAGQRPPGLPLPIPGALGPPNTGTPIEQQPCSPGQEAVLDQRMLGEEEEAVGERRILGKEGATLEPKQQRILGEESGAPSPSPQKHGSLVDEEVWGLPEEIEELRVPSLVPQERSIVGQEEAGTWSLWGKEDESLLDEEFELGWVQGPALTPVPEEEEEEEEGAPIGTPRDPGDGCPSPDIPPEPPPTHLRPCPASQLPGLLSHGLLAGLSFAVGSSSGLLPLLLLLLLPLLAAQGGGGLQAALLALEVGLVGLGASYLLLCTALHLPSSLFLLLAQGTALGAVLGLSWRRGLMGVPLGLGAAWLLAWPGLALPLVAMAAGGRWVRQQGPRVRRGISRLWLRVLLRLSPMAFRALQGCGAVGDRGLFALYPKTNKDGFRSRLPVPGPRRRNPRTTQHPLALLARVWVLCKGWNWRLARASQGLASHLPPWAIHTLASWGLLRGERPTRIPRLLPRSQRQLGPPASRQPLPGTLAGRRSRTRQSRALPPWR
pIC50: −log10 of the molar value.

{"Mol": "COc1cc(Nc2ccc3c(n2)CN(C)C32CCN(C3COC3)CC2)c(C(N)=O)nc1-c1cccc2c1ncn2C", "pIC50": "< 5.00"}

* * *

Assayed Target: Tyrosine-protein kinase JAK3 (Homo sapiens, UniProt P52333)
Sequence (P52333 whole entry): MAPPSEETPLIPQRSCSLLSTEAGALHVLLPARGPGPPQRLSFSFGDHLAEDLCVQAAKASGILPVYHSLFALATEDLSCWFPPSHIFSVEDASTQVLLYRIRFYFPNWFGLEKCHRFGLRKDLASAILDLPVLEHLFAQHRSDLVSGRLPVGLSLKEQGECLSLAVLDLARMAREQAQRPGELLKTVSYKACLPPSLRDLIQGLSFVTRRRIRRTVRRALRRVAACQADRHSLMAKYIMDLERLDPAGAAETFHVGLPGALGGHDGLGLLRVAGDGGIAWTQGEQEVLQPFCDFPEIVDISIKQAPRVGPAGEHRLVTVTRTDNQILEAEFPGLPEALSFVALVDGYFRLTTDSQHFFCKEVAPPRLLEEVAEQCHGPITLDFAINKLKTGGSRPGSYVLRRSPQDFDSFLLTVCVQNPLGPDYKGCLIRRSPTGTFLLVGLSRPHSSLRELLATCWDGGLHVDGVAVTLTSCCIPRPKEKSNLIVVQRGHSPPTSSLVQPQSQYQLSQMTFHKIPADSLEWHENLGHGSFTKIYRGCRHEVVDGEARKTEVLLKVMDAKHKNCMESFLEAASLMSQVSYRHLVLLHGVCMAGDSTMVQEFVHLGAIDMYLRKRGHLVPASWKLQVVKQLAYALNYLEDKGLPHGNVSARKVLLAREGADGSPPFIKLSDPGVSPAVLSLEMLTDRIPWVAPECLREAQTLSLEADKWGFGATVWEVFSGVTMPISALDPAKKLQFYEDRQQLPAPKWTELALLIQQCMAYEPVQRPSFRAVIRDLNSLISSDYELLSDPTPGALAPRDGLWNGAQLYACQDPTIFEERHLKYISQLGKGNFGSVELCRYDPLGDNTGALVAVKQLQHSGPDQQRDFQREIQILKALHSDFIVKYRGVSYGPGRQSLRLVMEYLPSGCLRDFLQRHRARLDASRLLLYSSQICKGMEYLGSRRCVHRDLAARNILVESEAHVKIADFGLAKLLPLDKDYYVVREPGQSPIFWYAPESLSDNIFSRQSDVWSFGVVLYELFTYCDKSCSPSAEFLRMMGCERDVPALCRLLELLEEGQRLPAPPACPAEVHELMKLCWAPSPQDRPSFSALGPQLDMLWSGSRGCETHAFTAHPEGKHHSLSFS

{"Mol": "COc1cc(Nc2ccc3c(n2)CN(C)C32CCN(C3COC3)CC2)c(C(N)=O)nc1-c1cccc2c1ncn2C", "IC50": "> 10 µM"}

* * *

Assayed Target: Mitogen-activated protein kinase kinase kinase 7 (Homo sapiens, UniProt O43318)
Sequence (O43318 whole entry): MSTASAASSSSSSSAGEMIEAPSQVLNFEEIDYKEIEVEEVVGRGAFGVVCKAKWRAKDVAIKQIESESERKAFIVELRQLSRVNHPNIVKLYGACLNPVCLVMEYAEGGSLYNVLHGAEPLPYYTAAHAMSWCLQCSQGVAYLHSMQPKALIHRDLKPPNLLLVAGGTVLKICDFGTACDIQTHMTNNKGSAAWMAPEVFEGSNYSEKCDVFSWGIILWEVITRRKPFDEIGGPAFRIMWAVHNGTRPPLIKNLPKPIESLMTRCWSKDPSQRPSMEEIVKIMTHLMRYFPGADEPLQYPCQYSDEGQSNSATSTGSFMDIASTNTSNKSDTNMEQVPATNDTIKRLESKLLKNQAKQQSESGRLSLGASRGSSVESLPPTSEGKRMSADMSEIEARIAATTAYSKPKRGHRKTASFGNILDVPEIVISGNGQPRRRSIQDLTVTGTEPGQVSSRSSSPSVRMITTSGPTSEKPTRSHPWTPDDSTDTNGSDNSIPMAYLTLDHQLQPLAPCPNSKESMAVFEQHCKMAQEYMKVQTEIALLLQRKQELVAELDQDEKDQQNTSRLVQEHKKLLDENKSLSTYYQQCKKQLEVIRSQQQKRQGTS
Assay Name: Inhibition of TAK1 (unknown origin)
pIC50: −log10 of the molar value.

{"Mol": "COc1cc(Nc2ccc3c(n2)CN(C)C32CCN(C3COC3)CC2)c(C(N)=O)nc1-c1cccc2c1ncn2C", "pIC50": "< 5.00"}

* * *

Assay Name: in vivo
Assay Context: Beagle, dog, po, 2 mg/kg
Description: Half life in Beagle dog at 2 mg/kg, po
Measured half-life by item

{"Mol": "COc1cc(Nc2ccc3c(n2)CN(C)C32CCN(C3COC3)CC2)c(C(N)=O)nc1-c1cccc2c1ncn2C", "half-life, h": 7.65}
{"Mol": "CN1Cc2nc(Nc3cc(C4CC4)c(-c4cccc5c4ncn5C)nc3C(N)=O)ccc2C12CCN(C1COC1)CC2", "half-life, h": 6.06}

* * *

Assay Name: in vivo
Assay Context: cynomolgus monkey, iv, 1 mg/kg
Description: Volume of distribution in Cynomolgus monkey at 1 mg/kg, iv
Value Type: Vd

{"Mol": "COc1cc(Nc2ccc3c(n2)CN(C)C32CCN(C3COC3)CC2)c(C(N)=O)nc1-c1cccc2c1ncn2C", "Value Type": "Vd", "Reported": "5.07 L/kg"}

* * *

Assay Name: in vivo
Assay Context: Sprague-Dawley, rat, po
Description: Half life in Sprague-Dawley rat administered as po dose

{"Mol": "COc1cc(Nc2ccc3c(n2)CN(C)C32CCOCC2)c(C(N)=O)nc1-c1cncc2c1ncn2C", "half-life (h)": 1.22}

* * *

Each record here notes measured pIC50.
Assayed Target: Mitogen-activated protein kinase kinase kinase kinase 1 (Homo sapiens)
Sequence (Q92918 whole entry, the tested form may be a part): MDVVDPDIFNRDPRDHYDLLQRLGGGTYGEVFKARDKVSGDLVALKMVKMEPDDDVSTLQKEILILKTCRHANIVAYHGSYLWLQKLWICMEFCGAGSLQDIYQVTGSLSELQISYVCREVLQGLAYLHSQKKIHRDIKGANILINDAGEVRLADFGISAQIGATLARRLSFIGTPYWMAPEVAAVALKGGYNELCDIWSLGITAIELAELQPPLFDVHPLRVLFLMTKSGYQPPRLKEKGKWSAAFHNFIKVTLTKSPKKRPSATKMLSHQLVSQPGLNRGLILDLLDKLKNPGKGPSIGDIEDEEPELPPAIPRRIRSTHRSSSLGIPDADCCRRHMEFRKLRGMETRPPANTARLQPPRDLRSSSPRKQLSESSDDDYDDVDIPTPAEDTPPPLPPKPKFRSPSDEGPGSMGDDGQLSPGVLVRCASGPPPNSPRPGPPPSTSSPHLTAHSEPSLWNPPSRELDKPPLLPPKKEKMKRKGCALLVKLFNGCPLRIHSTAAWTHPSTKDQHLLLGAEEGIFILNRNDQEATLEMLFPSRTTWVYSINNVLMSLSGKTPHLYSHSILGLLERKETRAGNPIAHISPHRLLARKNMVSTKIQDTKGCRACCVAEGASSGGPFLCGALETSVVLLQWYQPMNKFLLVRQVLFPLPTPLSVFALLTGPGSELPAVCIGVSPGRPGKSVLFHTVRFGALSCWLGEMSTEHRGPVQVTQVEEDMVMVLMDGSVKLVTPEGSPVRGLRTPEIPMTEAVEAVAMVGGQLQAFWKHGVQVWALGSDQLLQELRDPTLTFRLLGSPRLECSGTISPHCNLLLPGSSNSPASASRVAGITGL
Assay Name: Inhibition of human recombinant wild type N-terminal HPK1 (1 to 346 residues) infected in insect Sf21 cells using fluorescein-PKC as substrate preincubated for 10 mins followed by substrate addition and measured after 90 mins by microplate reader based analysis
pIC50: −log10 of the molar value.

{"Molecule": "CCN1Cc2nc(Nc3cc(OC)c(-c4cccc5c4ncn5C)nc3C(N)=O)ccc2C12CCOCC2", "pIC50": "> 9.29"}
{"Molecule": "CN1Cc2nc(Nc3cc(OC(F)F)c(-c4cccc5c4ncn5C)nc3C(N)=O)ccc2C12CCOCC2", "pIC50": "> 9.29"}
{"Molecule": "CN1Cc2nc(Nc3ccc(C4=CCCC(NC(=O)c5ccccc5)C4)nc3C(N)=O)ccc2C12CCOCC2 (stereo unspecified)", "pIC50": 9.19}
{"Molecule": "COc1cc(Nc2ccc3c(n2)CN(C)C32CCN(C3COC3)CC2)c(C(N)=O)nc1-c1cccc2c1ncn2C", "pIC50": "> 9.29"}
{"Molecule": "COc1cc(Nc2ccc3c(n2)CN(C)C32CCOCC2)c(C(N)=O)nc1-c1cncc2c1ncn2C", "pIC50": "> 9.29"}
{"Molecule": "COc1cc(Nc2ccc3c(n2)CN(C)C32CCOCC2)c(C(N)=O)nc1-c1cccc2c1ncn2C(F)F", "pIC50": "> 9.29"}

* * *

Assayed Target: Proto-oncogene tyrosine-protein kinase Src (Homo sapiens)
Sequence (P12931 2-536 limits assumed): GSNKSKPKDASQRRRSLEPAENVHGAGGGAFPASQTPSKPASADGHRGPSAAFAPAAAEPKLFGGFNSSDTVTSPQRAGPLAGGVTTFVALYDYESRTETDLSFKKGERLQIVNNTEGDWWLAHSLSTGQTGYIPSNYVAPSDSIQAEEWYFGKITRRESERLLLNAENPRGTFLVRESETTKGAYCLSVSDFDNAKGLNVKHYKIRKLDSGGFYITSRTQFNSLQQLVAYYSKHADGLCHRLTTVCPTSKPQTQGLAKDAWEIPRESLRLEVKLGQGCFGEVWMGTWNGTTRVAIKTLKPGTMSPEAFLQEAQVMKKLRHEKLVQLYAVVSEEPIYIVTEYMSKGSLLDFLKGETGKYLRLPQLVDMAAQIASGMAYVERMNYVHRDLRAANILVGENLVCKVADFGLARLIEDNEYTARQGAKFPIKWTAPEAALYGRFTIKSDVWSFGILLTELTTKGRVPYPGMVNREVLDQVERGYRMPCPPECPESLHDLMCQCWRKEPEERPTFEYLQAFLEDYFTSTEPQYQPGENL

{"Mol": "COc1cc(Nc2ccc3c(n2)CN(C)C32CCN(C3COC3)CC2)c(C(N)=O)nc1-c1cccc2c1ncn2C", "Unit Abbreviation": "nM", "IC50": 2110}

* * *

Assayed Target: UniProt:O60674
Sequence (O60674 whole entry): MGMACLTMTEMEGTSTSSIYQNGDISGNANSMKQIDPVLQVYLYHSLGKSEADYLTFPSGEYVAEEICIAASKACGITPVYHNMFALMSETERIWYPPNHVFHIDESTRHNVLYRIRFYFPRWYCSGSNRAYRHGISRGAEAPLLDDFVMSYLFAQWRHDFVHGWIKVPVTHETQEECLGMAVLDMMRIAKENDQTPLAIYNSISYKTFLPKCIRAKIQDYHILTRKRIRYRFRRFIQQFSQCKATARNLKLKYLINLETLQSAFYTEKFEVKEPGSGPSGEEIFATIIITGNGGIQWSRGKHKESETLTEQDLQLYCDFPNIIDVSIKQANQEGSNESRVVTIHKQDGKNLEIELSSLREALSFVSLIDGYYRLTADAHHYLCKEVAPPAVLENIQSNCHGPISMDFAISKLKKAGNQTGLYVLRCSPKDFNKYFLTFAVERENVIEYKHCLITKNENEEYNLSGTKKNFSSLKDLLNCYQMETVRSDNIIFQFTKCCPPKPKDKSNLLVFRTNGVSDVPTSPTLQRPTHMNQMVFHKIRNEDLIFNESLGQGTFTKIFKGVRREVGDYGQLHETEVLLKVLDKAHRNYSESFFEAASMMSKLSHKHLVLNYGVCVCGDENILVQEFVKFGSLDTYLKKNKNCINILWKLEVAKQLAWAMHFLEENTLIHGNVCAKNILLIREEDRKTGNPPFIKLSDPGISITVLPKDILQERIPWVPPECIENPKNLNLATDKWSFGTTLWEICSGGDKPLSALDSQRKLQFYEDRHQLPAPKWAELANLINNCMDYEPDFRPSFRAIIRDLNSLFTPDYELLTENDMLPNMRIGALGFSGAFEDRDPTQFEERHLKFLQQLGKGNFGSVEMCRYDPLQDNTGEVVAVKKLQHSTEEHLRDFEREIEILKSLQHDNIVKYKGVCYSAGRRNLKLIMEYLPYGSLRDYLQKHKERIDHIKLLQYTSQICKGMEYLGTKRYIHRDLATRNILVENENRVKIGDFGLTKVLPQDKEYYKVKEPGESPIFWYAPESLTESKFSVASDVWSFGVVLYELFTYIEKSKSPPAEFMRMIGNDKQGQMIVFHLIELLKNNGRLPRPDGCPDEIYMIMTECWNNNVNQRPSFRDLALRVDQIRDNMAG
pIC50: −log10 of the molar value.

{"Mol": "COc1cc(Nc2ccc3c(n2)CN(C)C32CCN(C3COC3)CC2)c(C(N)=O)nc1-c1cccc2c1ncn2C", "pIC50": "< 5.00"}

* * *

Target chain: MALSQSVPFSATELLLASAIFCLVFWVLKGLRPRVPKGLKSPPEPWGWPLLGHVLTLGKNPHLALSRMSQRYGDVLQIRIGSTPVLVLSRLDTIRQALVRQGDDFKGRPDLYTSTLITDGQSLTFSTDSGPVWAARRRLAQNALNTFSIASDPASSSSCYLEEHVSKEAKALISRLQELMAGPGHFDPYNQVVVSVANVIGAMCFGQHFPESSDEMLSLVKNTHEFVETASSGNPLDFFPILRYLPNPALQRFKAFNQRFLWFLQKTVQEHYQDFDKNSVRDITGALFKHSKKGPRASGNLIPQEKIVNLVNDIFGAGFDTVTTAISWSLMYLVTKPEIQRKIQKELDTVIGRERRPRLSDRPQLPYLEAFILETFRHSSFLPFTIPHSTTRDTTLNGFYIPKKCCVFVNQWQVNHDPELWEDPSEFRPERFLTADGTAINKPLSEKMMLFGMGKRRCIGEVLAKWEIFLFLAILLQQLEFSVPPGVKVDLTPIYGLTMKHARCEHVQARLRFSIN
pIC50: −log10 of the molar value.

{"Mol": "COc1cc(Nc2ccc3c(n2)CN(C)C32CCN(C3COC3)CC2)c(C(N)=O)nc1-c1cccc2c1ncn2C", "pIC50": "< 4.30"}
